All figures here come from paper PMC11439681.

assayed_target: SYK (Homo sapiens)
Construct: ICE Bioscience Inc. (contract assay provider)
method_description: In vitro selectivity assay
Assay type: biochemical
condition_parameters: selectivity panel
endpoint: IC50

INSERT INTO assay_data (chemical_string, assayed_target, val) VALUES
  ('Cn1cc(-c2cc3cnc(Nc4ccc(-c5cncn5/C=C/C(=O)NO)cc4Cl)cc3n2C(=O)OC(C)(C)C)cn1', 'SYK (Homo sapiens)', '> 10 µM');

---

assayed_target: MET (Homo sapiens)
Construct: ICE Bioscience Inc. (contract assay provider)
Sequence (P08581 25-1390): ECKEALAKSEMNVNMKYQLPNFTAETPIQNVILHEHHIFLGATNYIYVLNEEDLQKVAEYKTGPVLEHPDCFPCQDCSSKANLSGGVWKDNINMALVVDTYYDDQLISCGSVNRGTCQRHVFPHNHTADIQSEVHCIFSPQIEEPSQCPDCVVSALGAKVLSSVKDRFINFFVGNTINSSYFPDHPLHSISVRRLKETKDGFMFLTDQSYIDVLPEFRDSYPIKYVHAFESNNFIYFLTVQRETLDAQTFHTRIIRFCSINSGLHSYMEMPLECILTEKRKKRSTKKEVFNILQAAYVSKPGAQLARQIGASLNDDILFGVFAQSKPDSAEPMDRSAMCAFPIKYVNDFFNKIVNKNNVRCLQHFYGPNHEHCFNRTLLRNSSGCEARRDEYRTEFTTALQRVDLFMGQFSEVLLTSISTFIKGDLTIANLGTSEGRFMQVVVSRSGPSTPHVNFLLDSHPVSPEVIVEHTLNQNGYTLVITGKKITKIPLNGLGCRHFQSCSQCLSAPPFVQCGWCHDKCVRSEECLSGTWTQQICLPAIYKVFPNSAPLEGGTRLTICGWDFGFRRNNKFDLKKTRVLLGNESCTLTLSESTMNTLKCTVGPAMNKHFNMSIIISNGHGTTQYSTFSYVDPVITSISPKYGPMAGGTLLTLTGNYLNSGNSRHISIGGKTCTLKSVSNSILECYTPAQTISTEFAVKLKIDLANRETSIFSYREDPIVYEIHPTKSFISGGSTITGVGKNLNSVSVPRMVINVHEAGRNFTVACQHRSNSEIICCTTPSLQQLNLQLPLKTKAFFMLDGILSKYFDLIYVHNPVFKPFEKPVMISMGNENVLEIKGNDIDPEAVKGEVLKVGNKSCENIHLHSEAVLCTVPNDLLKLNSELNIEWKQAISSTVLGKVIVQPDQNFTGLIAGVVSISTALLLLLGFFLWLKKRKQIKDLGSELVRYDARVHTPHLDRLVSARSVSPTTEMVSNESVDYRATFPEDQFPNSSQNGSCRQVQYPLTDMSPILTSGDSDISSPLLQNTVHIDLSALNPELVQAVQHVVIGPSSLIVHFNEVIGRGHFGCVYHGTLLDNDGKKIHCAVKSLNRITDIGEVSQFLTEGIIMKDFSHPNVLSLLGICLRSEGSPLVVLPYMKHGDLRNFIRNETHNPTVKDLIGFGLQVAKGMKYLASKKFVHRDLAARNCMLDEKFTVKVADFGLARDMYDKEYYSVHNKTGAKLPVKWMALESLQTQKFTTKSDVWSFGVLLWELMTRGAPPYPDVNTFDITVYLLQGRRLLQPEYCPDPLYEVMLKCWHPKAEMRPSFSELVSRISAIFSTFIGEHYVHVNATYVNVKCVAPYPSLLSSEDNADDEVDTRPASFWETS
method_description: In vitro selectivity assay
Assay type: biochemical
condition_parameters: selectivity panel
endpoint: IC50

INSERT INTO measurements (compound, val) VALUES
  ('Cn1cc(-c2cc3cnc(Nc4ccc(-c5cncn5/C=C/C(=O)NO)cc4Cl)cc3n2C(=O)OC(C)(C)C)cn1 [MPH-5]', '> 10 µM');

---

assayed_target: HDAC3 (Homo sapiens, UniProt O15379)
Construct: ICE Bioscience Inc. (contract assay provider)
Sequence (O15379 whole entry): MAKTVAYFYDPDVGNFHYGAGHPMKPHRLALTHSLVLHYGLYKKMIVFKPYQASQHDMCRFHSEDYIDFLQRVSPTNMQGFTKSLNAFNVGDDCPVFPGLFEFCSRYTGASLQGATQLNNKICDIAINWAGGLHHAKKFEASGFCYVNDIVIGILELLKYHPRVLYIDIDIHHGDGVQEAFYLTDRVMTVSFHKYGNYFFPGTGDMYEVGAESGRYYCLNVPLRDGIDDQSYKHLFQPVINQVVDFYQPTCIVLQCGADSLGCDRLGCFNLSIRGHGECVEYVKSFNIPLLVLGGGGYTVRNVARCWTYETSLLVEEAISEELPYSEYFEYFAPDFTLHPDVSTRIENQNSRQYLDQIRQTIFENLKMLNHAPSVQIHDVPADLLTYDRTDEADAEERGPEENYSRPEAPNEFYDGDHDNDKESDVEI
Sequence (Q9Y618 395-489 partner limits assumed): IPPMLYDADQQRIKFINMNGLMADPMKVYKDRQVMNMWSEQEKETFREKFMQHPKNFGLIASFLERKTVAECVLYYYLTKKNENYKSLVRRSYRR
method_description: In vitro selectivity assay
Type: biochemical
condition_parameters: selectivity panel
endpoint: IC50

INSERT INTO assay_data (compound, assayed_target, val) VALUES
  ('Cn1cc(-c2cc3cnc(Nc4ccc(-c5cncn5/C=C/C(=O)NO)cc4Cl)cc3n2C(=O)OC(C)(C)C)cn1 [MPH-5]', 'HDAC3 (Homo sapiens, UniProt O15379)', '> 10 µM');

---

assayed_target: LYN (Homo sapiens, UniProt P07948)
Construct: ICE Bioscience Inc. (contract assay provider)
Sequence (P07948 whole entry): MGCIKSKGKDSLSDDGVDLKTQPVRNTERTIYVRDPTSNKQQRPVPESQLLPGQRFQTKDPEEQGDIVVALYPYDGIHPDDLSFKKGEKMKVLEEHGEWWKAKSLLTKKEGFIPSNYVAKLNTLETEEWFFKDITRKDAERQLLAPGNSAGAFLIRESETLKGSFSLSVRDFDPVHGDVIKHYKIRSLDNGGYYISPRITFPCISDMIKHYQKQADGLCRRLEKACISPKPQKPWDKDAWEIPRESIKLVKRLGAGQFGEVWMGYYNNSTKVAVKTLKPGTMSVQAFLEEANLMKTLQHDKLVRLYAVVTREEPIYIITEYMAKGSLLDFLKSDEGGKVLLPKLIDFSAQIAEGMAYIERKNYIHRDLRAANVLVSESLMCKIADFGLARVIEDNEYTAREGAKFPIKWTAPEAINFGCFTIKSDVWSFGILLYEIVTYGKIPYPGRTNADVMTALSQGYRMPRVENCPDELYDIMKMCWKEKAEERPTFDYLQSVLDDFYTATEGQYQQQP
method_description: In vitro selectivity assay
Format: biochemical
condition_parameters: selectivity panel
endpoint: IC50

INSERT INTO assay_data (molecule, endpoint, val) VALUES
  ('Cn1cc(-c2cc3cnc(Nc4ccc(-c5cncn5/C=C/C(=O)NO)cc4Cl)cc3n2C(=O)OC(C)(C)C)cn1 [MPH-5]', 'IC50', '> 10 µM');

---

assayed_target: NTRK1 (Homo sapiens, UniProt P04629)
Construct: ICE Bioscience Inc. (contract assay provider)
method_description: In vitro selectivity assay
Assay type: biochemical
condition_parameters: selectivity panel
Description: The inhibitory effects of compound MPH-5 on a panel of 68 kinases and other histone deacetylases were evaluated to assess the selectivity profile of MPH-5. This experiment was conducted by ICE Bioscience Inc. (Beijing, China).
endpoint: IC50

INSERT INTO assay_data (molecule, assayed_target, endpoint, val) VALUES
  ('Cn1cc(-c2cc3cnc(Nc4ccc(-c5cncn5/C=C/C(=O)NO)cc4Cl)cc3n2C(=O)OC(C)(C)C)cn1 [MPH-5]', 'NTRK1 (Homo sapiens, UniProt P04629)', 'IC50', '> 10 µM');

---

assayed_target: RAF1 (Homo sapiens, UniProt P04049)
Sequence (P04049 whole entry): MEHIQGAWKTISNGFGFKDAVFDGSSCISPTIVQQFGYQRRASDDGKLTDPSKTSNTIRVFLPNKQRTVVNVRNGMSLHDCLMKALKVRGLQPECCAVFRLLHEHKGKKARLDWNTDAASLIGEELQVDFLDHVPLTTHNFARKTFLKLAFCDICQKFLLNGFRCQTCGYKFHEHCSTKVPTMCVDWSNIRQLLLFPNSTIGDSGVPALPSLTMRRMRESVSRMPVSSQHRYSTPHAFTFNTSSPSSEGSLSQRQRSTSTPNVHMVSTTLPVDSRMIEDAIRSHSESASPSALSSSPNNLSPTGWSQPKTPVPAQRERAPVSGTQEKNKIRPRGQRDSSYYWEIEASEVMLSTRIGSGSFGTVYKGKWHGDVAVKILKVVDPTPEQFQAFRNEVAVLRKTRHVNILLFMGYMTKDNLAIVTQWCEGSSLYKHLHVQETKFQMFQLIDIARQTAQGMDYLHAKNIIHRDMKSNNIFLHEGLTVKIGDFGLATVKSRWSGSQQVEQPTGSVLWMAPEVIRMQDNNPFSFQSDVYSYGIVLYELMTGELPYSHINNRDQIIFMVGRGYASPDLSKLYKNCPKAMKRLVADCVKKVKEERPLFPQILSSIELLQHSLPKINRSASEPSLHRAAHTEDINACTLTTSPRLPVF
method_description: In vitro selectivity assay
Format: biochemical
condition_parameters: selectivity panel
endpoint: IC50

INSERT INTO assay_data (molecule, assayed_target, val) VALUES
  ('Cn1cc(-c2cc3cnc(Nc4ccc(-c5cncn5/C=C/C(=O)NO)cc4Cl)cc3n2C(=O)OC(C)(C)C)cn1 [MPH-5]', 'RAF1 (Homo sapiens, UniProt P04049)', '> 10 µM');

---

assayed_target: MST1R (Homo sapiens, UniProt Q04912)
Construct: ICE Bioscience Inc. (contract assay provider)
Sequence (Q04912 25-1400): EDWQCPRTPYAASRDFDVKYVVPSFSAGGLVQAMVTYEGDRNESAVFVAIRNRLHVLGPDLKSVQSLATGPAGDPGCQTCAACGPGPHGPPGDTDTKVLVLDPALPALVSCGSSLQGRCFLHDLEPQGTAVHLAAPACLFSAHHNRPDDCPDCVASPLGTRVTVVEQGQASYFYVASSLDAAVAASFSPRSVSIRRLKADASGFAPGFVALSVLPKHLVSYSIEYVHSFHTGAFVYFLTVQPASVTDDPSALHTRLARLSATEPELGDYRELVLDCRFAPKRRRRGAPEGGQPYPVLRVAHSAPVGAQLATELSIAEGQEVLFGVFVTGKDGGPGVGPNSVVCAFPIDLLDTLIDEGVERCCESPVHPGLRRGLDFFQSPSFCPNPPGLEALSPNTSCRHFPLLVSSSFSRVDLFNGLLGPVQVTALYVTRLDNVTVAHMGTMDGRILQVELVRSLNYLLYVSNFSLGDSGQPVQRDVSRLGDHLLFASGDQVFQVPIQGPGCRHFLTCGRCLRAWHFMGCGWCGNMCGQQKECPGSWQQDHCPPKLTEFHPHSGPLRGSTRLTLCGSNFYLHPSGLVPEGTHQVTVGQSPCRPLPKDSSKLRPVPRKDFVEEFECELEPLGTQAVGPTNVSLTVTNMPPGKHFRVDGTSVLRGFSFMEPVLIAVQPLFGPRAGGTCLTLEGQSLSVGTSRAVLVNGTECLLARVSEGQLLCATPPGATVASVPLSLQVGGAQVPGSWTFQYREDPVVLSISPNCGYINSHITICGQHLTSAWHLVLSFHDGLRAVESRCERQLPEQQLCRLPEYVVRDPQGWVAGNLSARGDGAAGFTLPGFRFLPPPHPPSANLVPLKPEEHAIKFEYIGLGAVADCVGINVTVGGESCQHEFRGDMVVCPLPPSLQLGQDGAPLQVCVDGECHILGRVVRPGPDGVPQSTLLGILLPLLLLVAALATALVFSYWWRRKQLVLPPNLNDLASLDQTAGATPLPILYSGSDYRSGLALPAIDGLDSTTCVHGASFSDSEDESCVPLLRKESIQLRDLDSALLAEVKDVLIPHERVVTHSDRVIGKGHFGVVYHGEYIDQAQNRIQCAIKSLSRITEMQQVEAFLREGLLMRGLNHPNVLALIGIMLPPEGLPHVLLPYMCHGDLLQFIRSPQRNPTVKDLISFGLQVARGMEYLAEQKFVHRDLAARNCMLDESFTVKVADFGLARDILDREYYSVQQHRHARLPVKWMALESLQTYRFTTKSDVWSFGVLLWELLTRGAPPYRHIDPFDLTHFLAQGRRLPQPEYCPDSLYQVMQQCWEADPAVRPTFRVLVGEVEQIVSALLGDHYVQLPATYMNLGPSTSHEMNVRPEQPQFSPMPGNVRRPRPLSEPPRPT
method_description: In vitro selectivity assay
Assay type: biochemical
condition_parameters: selectivity panel
endpoint: IC50

INSERT INTO results (molecule, assayed_target, val) VALUES
  ('Cn1cc(-c2cc3cnc(Nc4ccc(-c5cncn5/C=C/C(=O)NO)cc4Cl)cc3n2C(=O)OC(C)(C)C)cn1 [MPH-5]', 'MST1R (Homo sapiens, UniProt Q04912)', '> 10 µM');
